B1: KCNA4 (parent)
chain: YQLGEEALLKFREDEGFVREEEDR

# Variants of: B1
# EXPERIMENTAL_DETAILS: protein stability index of a GFP-peptide fusion (GPS, HEK-293T) (PSI 1-6); higher = more stable;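 further: lentivirally expressed fusions sorted by FACS into six bins by GFP to DsRed ratio, PSI derived from sequencing read proportions per bin multiplied by bin number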
# CONDITION_LABEL: c terminus: a fixed tail appended
Entries and their protein stability index
Respond using a number only.

• E13D = 4.11

Ask | Give the reported protein stability index for this variant. E5Q
Reply | 3.92

Ask | Give the reported protein stability index for this variant. D14T
Reply | 3.98

Reference source for all entries: the supplement of paper PMC10567573
